assay-target: SPT (SPT2-expressing membrane fraction: human SPT1, human SPT2 and human ssSPTa) (Homo sapiens, UniProt O15269+O15270)
Construct: Full-length human SPT1, human SPT2 and human ssSPTa used; made in house; host or cells: FreeStyle 293 cells (pcDNA3.1 vectors, cotransfection); crude membrane fraction used
protocol-notes: SPT enzyme inhibition test (Test Example 1)
Type: biochemical
condition-set: read-out: Rate of inhibition (%) at 1 μM
Protocol: After culture for 3 days, the cells were recovered and frozen at −80° C. to obtain expressing cells. The frozen cells were suspended in a 50 mM Hepes buffer (pH 7.5) containing 250 mM sucrose, 5 mM ethylenediaminetetraacetic acid (EDTA), 5 mM dithiothreitol (DTT) and Complete, EDTA-free (Roche Applied Science, Penzberg, Upper Bavaria, Germany). […] The protein concentration was determined using CBB Protein Assay with bovine serum albumin used as standards. […]
Assign inhibition at 1 µM to each entry below.
Answers are plain numbers, in %.

Below, 2 molecules whose answers are already recorded.
COc1cc(C(=O)N2CC[C@H](NC(=O)c3ccccc3OC(F)(F)F)c3c2cnn3C)cnc1OC [Example 171A]: 101
Cc1cc(C(=O)N[C@@H]2CCN(C(=O)c3cc(Cl)c4nccnc4c3)C[C@@H]2c2ccc(F)cc2)n(C)n1 [Example 58B]: 101

Next, consider the following molecule.
Please give measured inhibition at 1 µM of the following entry: O=C(N[C@@H]1CCN(C(=O)c2cc(Cl)c3nccnc3c2)C[C@@H]1c1ccccc1)c1ccccc1OC(F)(F)F [Example 254B]
99

* * *

Assign inhibition at 1 µM to each entry below.
assay-target: SPT (SPT2-expressing membrane fraction: human SPT1, human SPT2 and human ssSPTa) (Homo sapiens, UniProt O15269+O15270)
Construct: Full-length human SPT1, human SPT2 and human ssSPTa used; made in house; host or cells: FreeStyle 293 cells (pcDNA3.1 vectors, cotransfection); crude membrane fraction used
Sequence (O15269 1-473): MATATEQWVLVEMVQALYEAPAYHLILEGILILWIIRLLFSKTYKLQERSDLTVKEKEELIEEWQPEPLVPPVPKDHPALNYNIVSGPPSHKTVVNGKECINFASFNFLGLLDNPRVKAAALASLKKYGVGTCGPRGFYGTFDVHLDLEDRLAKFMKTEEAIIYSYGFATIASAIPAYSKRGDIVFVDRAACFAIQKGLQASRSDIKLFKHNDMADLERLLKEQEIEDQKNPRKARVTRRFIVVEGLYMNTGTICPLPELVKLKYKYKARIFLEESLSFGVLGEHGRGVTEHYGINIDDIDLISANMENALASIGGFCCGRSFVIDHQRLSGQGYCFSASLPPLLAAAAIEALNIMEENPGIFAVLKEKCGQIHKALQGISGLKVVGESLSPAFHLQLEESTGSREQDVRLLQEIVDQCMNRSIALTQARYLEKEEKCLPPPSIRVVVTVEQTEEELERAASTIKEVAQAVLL
Sequence (O15270 1-562): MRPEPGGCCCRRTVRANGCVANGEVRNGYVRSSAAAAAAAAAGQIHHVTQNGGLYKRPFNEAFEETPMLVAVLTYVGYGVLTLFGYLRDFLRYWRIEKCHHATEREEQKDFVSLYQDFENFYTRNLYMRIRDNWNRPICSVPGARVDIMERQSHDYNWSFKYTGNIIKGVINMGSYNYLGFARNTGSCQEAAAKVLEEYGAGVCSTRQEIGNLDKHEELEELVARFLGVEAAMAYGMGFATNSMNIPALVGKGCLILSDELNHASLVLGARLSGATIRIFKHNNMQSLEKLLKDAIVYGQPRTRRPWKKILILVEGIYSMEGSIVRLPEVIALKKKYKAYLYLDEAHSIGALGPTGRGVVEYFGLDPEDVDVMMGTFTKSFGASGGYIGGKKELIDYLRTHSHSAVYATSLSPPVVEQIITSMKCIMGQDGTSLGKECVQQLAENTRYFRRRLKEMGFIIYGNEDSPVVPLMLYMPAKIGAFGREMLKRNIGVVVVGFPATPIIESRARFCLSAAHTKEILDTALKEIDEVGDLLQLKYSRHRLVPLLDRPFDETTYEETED
Sequence (Q969W0 1-71 partner): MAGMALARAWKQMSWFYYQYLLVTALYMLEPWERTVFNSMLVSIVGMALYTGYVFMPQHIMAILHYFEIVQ
protocol-notes: SPT enzyme inhibition test (Test Example 1)
Format: biochemical
condition-set: read-out: Rate of inhibition (%) at 1 μM
Give bare numbers, in %.

Below, 3 compounds whose answers are already recorded.
COc1ccc(C(=O)N2CCC(NC(=O)c3cnccc3C(F)(F)F)c3c2cnn3C)cc1OC (stereo not shown) [Example 91A]: 94
COc1ncc(C(=O)N2CC[C@H](NC(=O)c3ccc(Cl)cc3C(F)(F)F)c3c2cnn3CC(F)F)cc1Cl [Example 170A]: 99
Cc1nn(C)c(Cl)c1C(=O)N[C@@H]1CCN(C(=O)c2cc(C)c3ncc(C)n3c2)C[C@@H]1c1ccccc1 [Example 344B]: 103

Count: 4. Required value per item: inhibition at 1 µM.
1. COc1cc(C(=O)N2CC[C@@H](NC(=O)c3cc(C(F)(F)F)nn3C)[C@@H](c3ccccc3)C2)cc2nccnc12 [Example 412B]
2. Cc1cc(NC(=O)C2CC2)sc1C(=O)N1CC[C@@H](NC(=O)c2ccccc2OC(F)(F)F)[C@@H](c2ccccc2)C1 [Example 35B]
3. COc1cc(C(=O)N2CC[C@@H](NC(=O)c3cnn(C)c3Cl)[C@@H](c3ccccc3)C2)cnc1OC [Example 150B]
4. Cn1ncc(C(=O)N[C@@H]2CCN(C(=O)c3ccc4nccnc4c3)C[C@@H]2c2ccccc2)c1Cl [Example 132B]

102
101
101
98

* * *

assay-target: SPT (SPT2-expressing membrane fraction: human SPT1, human SPT2 and human ssSPTa) (Homo sapiens, UniProt O15269+O15270)
Construct: Full-length human SPT1, human SPT2 and human ssSPTa used; made in house; host or cells: FreeStyle 293 cells (pcDNA3.1 vectors, cotransfection); crude membrane fraction used
protocol-notes: SPT enzyme inhibition test (Test Example 1)
Format: biochemical
condition-set: read-out: Rate of inhibition (%) at 1 μM
Assign inhibition at 1 µM to each entry below.
Numbers only, in %.

COc1cc(C(=O)N2CC[C@@H](NC(=O)c3cccnc3C(F)(F)F)[C@@H](c3ccccc3)C2)cnc1OC [Example 140B]: 101
COc1ccc(C(=O)N2CCC(NC(=O)c3sccc3Cl)c3c2cnn3C)cc1OC (centres unmarked) [Example 64A]: 82
COc1cc(C(=O)N2CC[C@@H](NC(=O)c3cc(C4CC4)nn3C)[C@@H](c3ccccc3)C2)cc2nccnc12 [Example 330B]: 102

Count: 4. Required value per item: inhibition at 1 µM.
1. COc1cc(C(=O)N2CC[C@@H](NC(=O)c3ccccc3S(C)(=O)=O)[C@@H](c3ccccc3)C2)cnc1OC [Example 141B]
2. COc1ccc(C(=O)N2CC[C@H](NC(=O)c3ccccc3Cl)[C@H](c3ccc(F)cc3)C2)cc1OC (relative stereo) [Example 114B]
3. COc1ncc(C(=O)N2CCC(NC(=O)c3ccccc3C(F)(F)F)c3c2cnn3C)cc1Cl (centres unmarked) [Example 85A]
4. Cc1nn(C)c(Cl)c1C(=O)N[C@@H]1CCN(C(=O)c2cc(Cl)c3ncc(C)n3c2)C[C@@H]1c1ccccc1 [Example 342B]

1: 101; 2: 99; 3: 99; 4: 101

* * *

Assign inhibition at 1 µM to each entry below.
assay-target: SPT (SPT2-expressing membrane fraction: human SPT1, human SPT2 and human ssSPTa) (Homo sapiens, UniProt O15269+O15270)
Construct: Full-length human SPT1, human SPT2 and human ssSPTa used; made in house; host or cells: FreeStyle 293 cells (pcDNA3.1 vectors, cotransfection); crude membrane fraction used
Sequence (O15269 1-473): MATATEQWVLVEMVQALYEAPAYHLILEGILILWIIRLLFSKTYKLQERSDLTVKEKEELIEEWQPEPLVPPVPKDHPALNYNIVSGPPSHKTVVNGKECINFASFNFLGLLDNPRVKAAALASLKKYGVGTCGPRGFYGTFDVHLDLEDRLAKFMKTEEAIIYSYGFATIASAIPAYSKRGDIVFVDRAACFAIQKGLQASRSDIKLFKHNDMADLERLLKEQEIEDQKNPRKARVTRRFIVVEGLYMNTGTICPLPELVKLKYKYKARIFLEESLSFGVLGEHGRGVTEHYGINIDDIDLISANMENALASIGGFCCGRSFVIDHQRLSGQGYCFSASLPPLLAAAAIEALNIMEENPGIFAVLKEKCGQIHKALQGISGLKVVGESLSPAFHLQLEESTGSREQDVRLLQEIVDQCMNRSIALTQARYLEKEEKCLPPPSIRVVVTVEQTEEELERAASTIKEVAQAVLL
Sequence (O15270 1-562): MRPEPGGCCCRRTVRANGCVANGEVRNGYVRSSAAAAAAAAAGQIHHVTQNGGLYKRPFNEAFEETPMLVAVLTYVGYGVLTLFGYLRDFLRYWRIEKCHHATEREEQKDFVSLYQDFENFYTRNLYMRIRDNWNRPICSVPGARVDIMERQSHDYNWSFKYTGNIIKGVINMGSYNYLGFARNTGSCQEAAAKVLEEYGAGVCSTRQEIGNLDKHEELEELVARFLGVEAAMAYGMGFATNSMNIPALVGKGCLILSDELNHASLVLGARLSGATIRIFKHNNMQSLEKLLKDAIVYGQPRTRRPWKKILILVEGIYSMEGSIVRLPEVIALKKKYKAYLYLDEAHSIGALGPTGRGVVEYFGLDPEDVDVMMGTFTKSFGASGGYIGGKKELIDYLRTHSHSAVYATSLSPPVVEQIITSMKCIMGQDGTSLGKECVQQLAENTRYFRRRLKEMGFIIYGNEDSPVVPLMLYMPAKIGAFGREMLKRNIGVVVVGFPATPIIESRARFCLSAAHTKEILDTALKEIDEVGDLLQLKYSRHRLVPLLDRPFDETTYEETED
Sequence (Q969W0 1-71 partner): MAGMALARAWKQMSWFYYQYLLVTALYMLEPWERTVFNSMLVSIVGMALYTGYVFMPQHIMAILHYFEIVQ
protocol-notes: SPT enzyme inhibition test (Test Example 1)
Format: biochemical
condition-set: read-out: Rate of inhibition (%) at 1 μM
Numbers only, in %.

Count: 5. Required value per item: inhibition at 1 µM.
1. COc1ccc(C(=O)N2CC[C@@H](NC(=O)c3ncccc3C(F)(F)F)[C@@H](c3ccccc3)C2)nc1OC [Example 44B]
2. COc1ccc(C(=O)N2CCC(NC(=O)c3ccccc3Cl)c3noc(C)c32)cc1OC (stereo not shown) [Example 17A]
3. COc1cc(C(=O)N2CC[C@@H](NC(=O)c3ccccc3OC(F)(F)F)[C@H](N3CCCCC3)C2)cnc1OC (relative stereo) [Example 253B]
4. CCOc1cc(C(=O)N[C@@H]2CCN(C(=O)c3cc(Cl)c4nccnc4c3)C[C@@H]2c2ccccc2)n(C)n1 [Example 170B]
5. CCn1ncc2c1C(NC(=O)c1ccccc1OC(F)(F)F)CCN2C(=O)c1cnc(OC)c(OC)c1 (stereo not shown) [Example 155A]

[98, 84, 97, 100, 103]
